Reference source: patent US8148388B2

# Test Target: cSRC (h) (Homo sapiens)
# Sequence (P12931 whole entry): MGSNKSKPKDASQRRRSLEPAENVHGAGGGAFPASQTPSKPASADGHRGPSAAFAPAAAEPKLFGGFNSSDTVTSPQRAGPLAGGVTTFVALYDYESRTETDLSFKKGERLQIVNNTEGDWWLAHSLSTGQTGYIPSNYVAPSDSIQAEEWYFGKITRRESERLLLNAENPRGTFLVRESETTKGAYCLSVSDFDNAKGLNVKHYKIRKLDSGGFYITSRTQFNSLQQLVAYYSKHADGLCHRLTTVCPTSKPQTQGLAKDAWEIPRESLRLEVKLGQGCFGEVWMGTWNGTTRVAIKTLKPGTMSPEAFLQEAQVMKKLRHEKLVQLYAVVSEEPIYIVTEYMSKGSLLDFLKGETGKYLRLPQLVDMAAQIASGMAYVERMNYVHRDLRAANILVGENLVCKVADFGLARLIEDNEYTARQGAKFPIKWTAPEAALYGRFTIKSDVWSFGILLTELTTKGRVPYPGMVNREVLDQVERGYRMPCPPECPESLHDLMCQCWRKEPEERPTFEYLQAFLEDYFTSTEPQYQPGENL
# Assay Comment: cSRC human kinase assay (glass-fiber filter)
# Format: biochemical
# Particulars: test concentration of 10^−6M
Quantity Measured: C3 score (inhibition of cSRC human)

Some entries whose results are on file:
>  <Smiles>
COc1ccc2cc1OCCCNC(=O)[C@@H]1CCCN1Cc1cc(F)c(Cl)cc1Nc1nc(ncc1C#N)N2

>  <C3 score (inhibition of cSRC human)>
1 (Score 1=10-30% inhibition)

$$$$
>  <Smiles>
COc1ccc2cc1OCCCCCCCOc1ccc(Br)cc1Nc1cc(ncn1)N2

>  <C3 score (inhibition of cSRC human)>
1 (Score 1=10-30% inhibition)

$$$$
>  <Smiles>
COc1ccc2cc1OCCCNC(=O)[C@H](CC(C)C)NC(=O)Cc1ccc(Cl)cc1Nc1cc(ncn1)N2

>  <C3 score (inhibition of cSRC human)>
4 (Score 4=>80% inhibition)

$$$$

Could you now consider this next compound?
Recorded result, `COc1ccc2cc1OCCCCCCCCOc1ccc(Br)cc1Nc1cc(ncn1)N2` , C3 score (inhibition of cSRC human): 1 (Score 1=10-30% inhibition)

* * *

Item-by-item account of inhibition at 1 µM
# Test Target: Fes (h) (Homo sapiens, UniProt P07332)
# Sequence (P07332 whole entry): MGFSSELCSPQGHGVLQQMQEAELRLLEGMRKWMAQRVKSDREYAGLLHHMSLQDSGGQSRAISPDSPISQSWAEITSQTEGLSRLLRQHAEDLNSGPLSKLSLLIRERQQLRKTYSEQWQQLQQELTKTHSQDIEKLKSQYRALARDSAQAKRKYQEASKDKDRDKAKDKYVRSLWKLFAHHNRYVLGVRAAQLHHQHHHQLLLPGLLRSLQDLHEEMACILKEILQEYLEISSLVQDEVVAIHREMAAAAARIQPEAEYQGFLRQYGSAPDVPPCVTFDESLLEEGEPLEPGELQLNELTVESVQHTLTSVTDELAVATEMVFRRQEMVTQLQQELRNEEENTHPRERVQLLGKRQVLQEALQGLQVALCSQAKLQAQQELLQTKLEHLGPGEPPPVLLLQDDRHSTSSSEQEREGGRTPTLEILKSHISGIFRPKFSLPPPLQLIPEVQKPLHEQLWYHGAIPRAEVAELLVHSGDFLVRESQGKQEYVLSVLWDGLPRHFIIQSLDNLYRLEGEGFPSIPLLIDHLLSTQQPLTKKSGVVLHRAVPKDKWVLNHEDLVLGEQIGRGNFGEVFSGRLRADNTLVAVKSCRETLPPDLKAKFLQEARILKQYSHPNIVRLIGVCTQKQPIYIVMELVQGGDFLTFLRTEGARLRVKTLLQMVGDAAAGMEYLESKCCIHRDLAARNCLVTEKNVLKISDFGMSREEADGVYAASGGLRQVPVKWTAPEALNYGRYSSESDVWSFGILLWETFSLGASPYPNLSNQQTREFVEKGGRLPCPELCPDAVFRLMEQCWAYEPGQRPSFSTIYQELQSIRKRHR
# Assay Comment: Fes human kinase assay (glass-fiber filter)
# Assay type: biochemical
# Particulars: test concentration of 10^−6M; read-out: C4 score (inhibition of Fes human)

Use these answered entries as a reference point.
>  <Smiles>
N#Cc1cnc2nc1Nc1cccc(c1)C(=O)NCCOc1cccc(c1)N2

>  <Observed>
10 to 30%

$$$$
>  <Smiles>
N#Cc1cnc2nc1Nc1cccc(c1)OCCCCOc1cccc(c1)N2

>  <Observed>
10 to 30%

$$$$
>  <Smiles>
COc1ccc2c(c1)OCCCCCCOc1ccc(Cl)cc1Nc1cc(ncn1)N2

>  <Observed>
10 to 30%

$$$$
>  <Smiles>
O=C1COc2cccc(c2)Nc2nccc(n2)Nc2cccc(c2)CN1

>  <Observed>
10 to 30%

$$$$
>  <Smiles>
COc1ccc2cc1OCCCNC(=O)C(C)(C)NC(=O)Cc1ccc(Cl)cc1Nc1cc(ncn1)N2

>  <Observed>
60 to 80%

$$$$

So, `O=C1COc2cccc(c2)Nc2nccc(n2)Nc2cccc(c2)OCCCCN1` ? Its inhibition at 1 µM was 30 to 60%

Query `N#Cc1cnc2nc1Nc1cccc(c1)C(=O)NCCCCCOc1cccc(c1)N2` yields inhibition at 1 µM of 10 to 30%

Reported inhibition at 1 µM ( `N#Cc1cnc2nc1Nc1cccc(c1)OCCNC(=O)c1cccc(c1)N2` ) = 10 to 30%

Record `N#Cc1cnc2nc1Nc1cccc(c1)OCC(=O)NCCCCOc1cccc(c1)N2` , field inhibition at 1 µM: 30 to 60%

// inhibition at 1 µM lookup, compound = `COc1ccc2cc1OCCNC(=O)CNC(=O)Cc1ccc(Cl)cc1Nc1cc(ncn1)N2` , result: 60 to 80%

* * *

# Test Target: Flt3 (h) (Homo sapiens, UniProt P36888)
# Sequence (P36888 27-993): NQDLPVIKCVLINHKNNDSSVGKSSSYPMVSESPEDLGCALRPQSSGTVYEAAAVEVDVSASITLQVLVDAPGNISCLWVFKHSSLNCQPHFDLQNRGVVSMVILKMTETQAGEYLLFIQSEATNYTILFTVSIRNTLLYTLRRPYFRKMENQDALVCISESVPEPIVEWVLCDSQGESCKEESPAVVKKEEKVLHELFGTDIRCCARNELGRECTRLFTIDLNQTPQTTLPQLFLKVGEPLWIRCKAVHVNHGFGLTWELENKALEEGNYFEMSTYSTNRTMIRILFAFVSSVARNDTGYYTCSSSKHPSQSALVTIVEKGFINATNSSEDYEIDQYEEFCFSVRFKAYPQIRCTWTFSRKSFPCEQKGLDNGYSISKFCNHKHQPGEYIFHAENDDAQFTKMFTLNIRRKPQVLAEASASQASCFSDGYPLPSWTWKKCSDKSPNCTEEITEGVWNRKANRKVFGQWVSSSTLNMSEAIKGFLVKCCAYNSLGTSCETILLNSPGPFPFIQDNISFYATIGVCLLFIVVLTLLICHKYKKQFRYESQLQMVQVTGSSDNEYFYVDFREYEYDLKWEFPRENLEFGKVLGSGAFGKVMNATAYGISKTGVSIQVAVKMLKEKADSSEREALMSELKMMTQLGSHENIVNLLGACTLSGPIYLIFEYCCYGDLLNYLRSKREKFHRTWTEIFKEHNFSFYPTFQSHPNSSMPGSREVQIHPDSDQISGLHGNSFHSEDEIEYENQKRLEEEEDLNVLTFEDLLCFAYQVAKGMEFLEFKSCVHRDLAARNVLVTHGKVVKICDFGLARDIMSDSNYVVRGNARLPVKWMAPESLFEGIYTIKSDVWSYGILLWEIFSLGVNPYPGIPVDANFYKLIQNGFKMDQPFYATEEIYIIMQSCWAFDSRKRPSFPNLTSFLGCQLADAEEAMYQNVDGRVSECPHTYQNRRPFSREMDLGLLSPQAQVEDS
# Assay Comment: Flt3 human kinase assay (glass-fiber filter)
# Assay type: biochemical
# Particulars: test concentration of 10^−6M
Attribute: C6 score (inhibition of Flt3 human)

Worked cases, C6 score (inhibition of Flt3 human) given:
>  <Smiles>
COc1ccc2cc1OCCCNC(=O)[C@@H]1CCCN1Cc1cc(F)c(Cl)cc1Nc1nc(ncc1C#N)N2

>  <C6 score (inhibition of Flt3 human)>
2 (Score 2=30-60% inhibition)

$$$$
>  <Smiles>
COc1ccc2cc1OCCNC(=O)[C@@H]1CCCN1Cc1cc(F)c(Cl)cc1Nc1nc(ncc1C#N)N2

>  <C6 score (inhibition of Flt3 human)>
2 (Score 2=30-60% inhibition)

$$$$
>  <Smiles>
COc1ccc2cc1OCCCCCCOc1ccc(Br)cc1Nc1cc(ncn1)N2

>  <C6 score (inhibition of Flt3 human)>
1 (Score 1=10-30% inhibition)

$$$$

Proceeding to the next compound to report its C6 score (inhibition of Flt3 human).
Value of measured C6 score (inhibition of Flt3 human) for the entry `COc1cc2cc(c1)OCCCCCCOc1ccc(Br)cc1Nc1cc(ncn1)N2` : 1 (Score 1=10-30% inhibition)

* * *

Below is a list of entries, each paired with its recorded C9 score (inhibition of Lck human) value.
# Test Target: UniProtKB P06239
# Sequence (P06239 whole entry): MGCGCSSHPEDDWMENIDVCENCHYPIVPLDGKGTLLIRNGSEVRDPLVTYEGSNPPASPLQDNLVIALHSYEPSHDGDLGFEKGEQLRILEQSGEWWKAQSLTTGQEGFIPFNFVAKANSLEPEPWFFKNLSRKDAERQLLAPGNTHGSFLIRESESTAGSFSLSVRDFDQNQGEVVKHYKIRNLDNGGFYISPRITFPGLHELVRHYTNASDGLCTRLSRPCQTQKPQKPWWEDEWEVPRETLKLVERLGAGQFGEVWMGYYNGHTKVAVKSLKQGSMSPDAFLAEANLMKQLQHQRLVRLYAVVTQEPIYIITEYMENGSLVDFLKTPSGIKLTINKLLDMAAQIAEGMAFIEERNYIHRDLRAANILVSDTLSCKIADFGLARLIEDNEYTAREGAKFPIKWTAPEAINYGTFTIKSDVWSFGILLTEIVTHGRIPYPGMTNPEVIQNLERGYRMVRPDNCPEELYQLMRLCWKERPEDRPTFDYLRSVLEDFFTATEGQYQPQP
# Assay Comment: Lck human kinase assay (glass-fiber filter)
# Format: biochemical
# Particulars: test concentration of 10^−6M

Example entries begin here.
>  <Molecule>
COc1cc2cc(c1)OCCCCCCOc1ccc(Br)cc1Nc1cc(ncn1)N2 [Compound 40]

>  <C9 score (inhibition of Lck human)>
1 (Score 1=10-30% inhibition)

$$$$
>  <Molecule>
COc1ccc2cc1OCCCNC(=O)[C@H](CC(C)C)NC(=O)Cc1ccc(Cl)cc1Nc1cc(ncn1)N2 [Compound 12]

>  <C9 score (inhibition of Lck human)>
4 (Score 4=>80% inhibition)

$$$$
>  <Molecule>
COc1ccc2cc1OCCCCCCCOc1ccc(Br)cc1Nc1cc(ncn1)N2 [Compound 37]

>  <C9 score (inhibition of Lck human)>
2 (Score 2=30-60% inhibition)

$$$$
>  <Molecule>
COc1ccc2cc1OCCCCCCOc1ccc(Br)cc1Nc1cc(ncn1)N2 [Compound 36]

>  <C9 score (inhibition of Lck human)>
2 (Score 2=30-60% inhibition)

$$$$
>  <Molecule>
COc1ccc2cc1OCCCNC(=O)[C@@H]1CCCN1Cc1cc(F)c(Cl)cc1Nc1nc(ncc1C#N)N2 [Compound 6]

>  <C9 score (inhibition of Lck human)>
2 (Score 2=30-60% inhibition)

$$$$

# Cl.Cl.O=C1CNC(=O)Cc2ccc(Cl)cc2Nc2cc(ncn2)Nc2ccc(OCCCN3CCOCC3)c(c2)OCCN1 [Compound 107] with UniProtKB P06239: C9 score (inhibition of Lck human) is 4 (Score 4=>80% inhibition)

Recorded C9 score (inhibition of Lck human) for COc1ccc2cc1OCCNC(=O)[C@@H]1CCCN1Cc1cc(F)c(Cl)cc1Nc1nc(ncc1C#N)N2 [Compound 31] on UniProtKB P06239 was 3 (Score 3=60-80% inhibition)

The value of C9 score (inhibition of Lck human) recorded for COc1ccc2cc1OCCCCCCCCCOc1ccc(Cl)cc1Nc1cc(ncn1)N2 [Compound 39] when tested on UniProtKB P06239 reads 1 (Score 1=10-30% inhibition)

* * *

# Test Target: EGFR (h) (Homo sapiens, UniProt P00533)
# Sequence (P00533 25-1210): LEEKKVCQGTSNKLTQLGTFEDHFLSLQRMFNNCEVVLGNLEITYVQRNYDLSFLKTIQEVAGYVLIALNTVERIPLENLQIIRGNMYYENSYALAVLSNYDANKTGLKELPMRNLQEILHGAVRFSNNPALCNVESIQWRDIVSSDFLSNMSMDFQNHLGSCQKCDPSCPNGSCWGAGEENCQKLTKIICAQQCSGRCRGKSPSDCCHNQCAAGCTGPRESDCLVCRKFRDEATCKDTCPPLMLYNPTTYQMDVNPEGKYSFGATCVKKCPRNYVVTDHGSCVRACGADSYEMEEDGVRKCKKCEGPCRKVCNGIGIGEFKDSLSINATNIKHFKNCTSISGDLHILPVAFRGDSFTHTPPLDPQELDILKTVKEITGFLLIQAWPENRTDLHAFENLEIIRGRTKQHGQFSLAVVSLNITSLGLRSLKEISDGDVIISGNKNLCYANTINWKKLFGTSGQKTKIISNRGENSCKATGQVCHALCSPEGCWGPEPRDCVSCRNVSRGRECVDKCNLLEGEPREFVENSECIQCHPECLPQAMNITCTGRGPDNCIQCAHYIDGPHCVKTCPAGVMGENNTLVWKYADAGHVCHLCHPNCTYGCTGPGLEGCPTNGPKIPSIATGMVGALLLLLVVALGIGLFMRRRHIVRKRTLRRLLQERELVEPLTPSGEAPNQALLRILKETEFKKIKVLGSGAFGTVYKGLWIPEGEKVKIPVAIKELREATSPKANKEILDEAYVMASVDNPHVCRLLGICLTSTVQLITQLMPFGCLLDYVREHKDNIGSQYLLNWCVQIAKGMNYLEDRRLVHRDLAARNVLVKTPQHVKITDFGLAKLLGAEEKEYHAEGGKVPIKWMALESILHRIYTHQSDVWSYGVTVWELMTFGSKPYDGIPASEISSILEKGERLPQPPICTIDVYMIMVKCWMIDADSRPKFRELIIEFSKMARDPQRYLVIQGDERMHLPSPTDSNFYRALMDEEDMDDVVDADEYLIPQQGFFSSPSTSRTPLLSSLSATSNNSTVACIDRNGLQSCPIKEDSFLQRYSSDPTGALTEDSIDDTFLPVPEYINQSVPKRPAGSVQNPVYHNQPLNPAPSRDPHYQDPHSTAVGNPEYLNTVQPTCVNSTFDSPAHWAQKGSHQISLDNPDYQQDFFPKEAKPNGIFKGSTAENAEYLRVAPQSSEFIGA
# Assay Comment: EGFR human kinase assay (glass-fiber filter)
# Assay type: biochemical
# Particulars: test concentration of 10^−6M; read-out: C4 score (inhibition of EGFR human)
Listed here are molecules together with their documented inhibition at 1 µM.

Reference set (4 entries):
>  <Molecule>
N#Cc1cnc2nc1Nc1cccc(c1)C(=O)NCCCCCOc1cccc(c1)N2 [Compound 18]

>  <inhibition at 1 µM>
10 to 30%

$$$$
>  <Molecule>
O=C1NCCCCOc2cccc(c2)Nc2ccnc(n2)Nc2cccc1c2 [Compound 19]

>  <inhibition at 1 µM>
10 to 30%

$$$$
>  <Molecule>
COc1ccc2c(c1)OCCCCCCOc1ccc(Cl)cc1Nc1cc(ncn1)N2 [Compound 34]

>  <inhibition at 1 µM>
30 to 60%

$$$$
>  <Molecule>
CC1(C)NC(=O)Cc2ccc(Cl)cc2Nc2cc(ncn2)Nc2ccc(OCCCN3CCOCC3)c(c2)OCCNC1=O [Compound 106]

>  <inhibition at 1 µM>
> 80%

$$$$

In the following, a different molecule is considered.
response.value for N#Cc1cnc2nc1Nc1cccc(c1)OCC(=O)NCCCCOc1cccc(c1)N2 [Compound 26] (field: inhibition at 1 µM) = 10 to 30%

* * *

# Lookup of reported C7 score (inhibition of Fms human) keyed by entry
# Test Target: Fms (h) (Homo sapiens)
# Sequence (P07333 20-972): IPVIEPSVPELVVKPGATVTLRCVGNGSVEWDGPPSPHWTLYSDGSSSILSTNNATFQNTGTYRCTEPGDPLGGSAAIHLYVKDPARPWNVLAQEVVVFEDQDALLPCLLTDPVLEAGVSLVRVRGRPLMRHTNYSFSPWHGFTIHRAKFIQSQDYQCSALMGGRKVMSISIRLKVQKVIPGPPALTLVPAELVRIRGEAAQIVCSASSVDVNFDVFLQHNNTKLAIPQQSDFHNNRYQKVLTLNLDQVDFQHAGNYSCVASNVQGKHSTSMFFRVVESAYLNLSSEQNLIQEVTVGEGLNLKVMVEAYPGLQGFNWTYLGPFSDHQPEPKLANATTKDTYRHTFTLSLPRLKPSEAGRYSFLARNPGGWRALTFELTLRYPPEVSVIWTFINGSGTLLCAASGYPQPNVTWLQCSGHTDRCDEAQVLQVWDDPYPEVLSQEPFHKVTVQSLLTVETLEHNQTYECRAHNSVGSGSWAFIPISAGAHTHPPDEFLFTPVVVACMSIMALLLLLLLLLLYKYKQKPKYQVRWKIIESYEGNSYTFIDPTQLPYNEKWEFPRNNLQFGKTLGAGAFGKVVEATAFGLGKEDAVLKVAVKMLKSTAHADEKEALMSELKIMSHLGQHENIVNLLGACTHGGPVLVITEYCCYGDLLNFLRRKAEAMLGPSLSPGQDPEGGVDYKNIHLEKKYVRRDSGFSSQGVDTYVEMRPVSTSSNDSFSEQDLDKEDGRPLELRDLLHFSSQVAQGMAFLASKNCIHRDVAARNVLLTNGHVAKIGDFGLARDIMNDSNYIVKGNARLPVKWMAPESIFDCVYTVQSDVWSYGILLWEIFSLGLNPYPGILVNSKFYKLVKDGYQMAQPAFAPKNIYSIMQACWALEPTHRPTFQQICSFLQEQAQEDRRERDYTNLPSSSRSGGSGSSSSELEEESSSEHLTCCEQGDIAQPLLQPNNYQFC
# Assay Comment: Fms human kinase assay (glass-fiber filter)
# Format: biochemical
# Particulars: test concentration of 10^−6M

As a guide, the following entries are already answered.
>  <Smiles>
COc1ccc2cc1OCCCCCCCOc1ccc(Br)cc1Nc1cc(ncn1)N2

>  <C7 score (inhibition of Fms human)>
1 (Score 1=10-30% inhibition)

$$$$
>  <Smiles>
COc1ccc2cc1OCCCCCCCCCOc1ccc(Cl)cc1Nc1cc(ncn1)N2

>  <C7 score (inhibition of Fms human)>
1 (Score 1=10-30% inhibition)

$$$$
>  <Smiles>
COc1ccc2cc1OCCCCCCCCOc1ccc(Br)cc1Nc1cc(ncn1)N2

>  <C7 score (inhibition of Fms human)>
2 (Score 2=30-60% inhibition)

$$$$

Field C7 score (inhibition of Fms human) (system: Fms (h) (Homo sapiens)) for entry `COc1ccc2cc1OCCCCCCOc1ccc(Br)cc1Nc1cc(ncn1)N2` = 1 (Score 1=10-30% inhibition)

* * *

# Test Target: UniProt P12931
# Assay Comment: cSRC human kinase assay (glass-fiber filter)
# Format: biochemical
# Particulars: test concentration of 10^−6M; read-out: C3 score (inhibition of cSRC human)
Quick list: inhibition at 1 µM per entry.

A selection of reference data follows.
>  <Smiles>
CC1(C)NC(=O)Cc2ccc(Cl)cc2Nc2cc(ncn2)Nc2ccc(OCCCN3CCOCC3)c(c2)OCCNC1=O

>  <Observed>
> 80%

$$$$
>  <Smiles>
O=C1COc2cccc(c2)Nc2nccc(n2)Nc2cccc(c2)OCCCN1

>  <Observed>
10 to 30%

$$$$
>  <Smiles>
N#Cc1cnc2nc1Nc1cccc(c1)OCCNC(=O)c1cccc(c1)N2

>  <Observed>
10 to 30%

$$$$

Sure, the documented inhibition at 1 µM for `COc1ccc2cc1OCCCNC(=O)C(C)(C)NC(=O)Cc1ccc(Cl)cc1Nc1cc(ncn1)N2` is > 80%

Documented inhibition at 1 µM of `N#Cc1cnc2nc1Nc1cccc(c1)OCC(=O)NCCCCOc1cccc(c1)N2` : 10 to 30%

The reported inhibition at 1 µM of the compound `O=C1COc2cccc(c2)Nc2nccc(n2)Nc2cccc(c2)OCCCCN1` was 30 to 60%

Please fill in: inhibition at 1 µM reported for `O=C1NCCCCCCOc2cccc(c2)Nc2ccnc(n2)Nc2cccc1c2` = 10 to 30%

compound `COc1ccc2cc1OCCCNCCOc1ccc(Cl)cc1Nc1cc(ncn1)N2` , inhibition at 1 µM observed: 10 to 30%
